These measurements were taken from patent US20130129746A1.

Target: T1, Human Serum Albumin (human, UniProt P02768 25-609)
T1 construct: mature; purified protein on CM5 chips for BIAcore; also called HSA; human SA
Test: BIAcore SPR;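 also: purified dAbs run at 1 µM, 500 nM and 50 nM over human, cynomolgus, mouse and rat serum albumin in BIAcore binding measurements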
pKd: −log10 of the molar value.
Reported endpoint: pKd

- Binder: "DOM7h-11-18 (other) VL: DIQMTQSPSSLSASVGDRVTITCRASRPIGTMLSWYQQKPGKAPKLLIWFGSRLQSGVPSRFSGSGSGTDFTLTISSLQPEDFATYHCAQAGTHPTTFGQGTKVEIKR"
  Endpoint result: 7.44
- Binder: "DOM7h-14-19 (other, Vk dAb (AlbudAb)) VL: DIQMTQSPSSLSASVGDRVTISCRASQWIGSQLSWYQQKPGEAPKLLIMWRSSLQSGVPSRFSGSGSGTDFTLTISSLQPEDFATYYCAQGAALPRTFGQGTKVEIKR"
  Endpoint result: 7.15
- Binder: "DOM7h-14-18 (other, Vk dAb (AlbudAb)) VL: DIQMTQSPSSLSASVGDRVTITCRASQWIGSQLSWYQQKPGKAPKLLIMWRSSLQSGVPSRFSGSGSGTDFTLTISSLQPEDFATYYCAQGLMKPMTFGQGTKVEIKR"
  Endpoint result: 6.55
- Binder: "DOM7h-11-15 (other) VL: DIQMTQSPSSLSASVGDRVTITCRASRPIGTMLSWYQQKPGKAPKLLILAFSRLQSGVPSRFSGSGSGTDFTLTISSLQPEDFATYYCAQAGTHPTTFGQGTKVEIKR"
  Endpoint result: 9.00
- Binder: "DOM7h-11-12 (other) VL: DIQMTQSPSSLSASVGDRVTITCRASRPIGTMLSWYQQKPGKAPKLLILFGSRLQSGVPSRFSGSGSGTDFTLTISSLQPEDFATYYCAQAGTHPTTFGQGTKVEIKR"
  Endpoint result: 6.46
- Binder: "DOM7h-14 (other, Vk dAb (AlbudAb)) VL: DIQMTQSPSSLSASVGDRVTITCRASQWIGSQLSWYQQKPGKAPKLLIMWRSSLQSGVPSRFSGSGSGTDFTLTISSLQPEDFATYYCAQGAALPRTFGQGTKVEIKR"
  Endpoint result: 7.48
- Binder: "DOM7h-14-10 (other, Vk dAb (AlbudAb)) VL: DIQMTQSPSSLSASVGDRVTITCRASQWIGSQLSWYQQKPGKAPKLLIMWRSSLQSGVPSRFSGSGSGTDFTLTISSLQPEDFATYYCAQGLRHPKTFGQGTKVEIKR"
  Endpoint result: 7.92
- Binder: "DOM7h-11-3 (other) VL: DIQMTQSPSSLSASVGDRVTITCRASRPIGTTLSWYQQKPGKAPKLLILWNSRLQSGVPSRFSGSGSGTDFTLTISSLQPEDFATYYCAQAGTHPTTFGQGTKVEIKR"
  Endpoint result: 7.49
- Binder: "DOM7h-11-19 (other) VL: DIQMTQSPSSLSASVGDRVTITCRASRPIGTMLSWYQQKPGKAPKLLILFGSRLQSGVPSRFSGSGSGTDFTLTISSLQPEDFATYYCAQTGTHPTTFGQGTKVEIKR"
  Endpoint result: 7.19
